- procedure-summary: Primary qHTS for inhibitors of nuclear receptor binding SET domain protein 2 (NSD2) in an isogenic RCH-ACV NSD2 p.E1099K mutant (9B) (AID 1645876); also: nearly all actives have a fitted effect of over 70% in size
- experimental-setup: RCH-ACV (leukaemia line) NSD2 E1099K (9B) viability, CellTiter-Glo, 72 h; series mostly up to 44.9 µM
Inconclusive results are not listed. Activity calls are given as the source filed them. Calls follow the shape of the dose curve; as a rule, active = well fitted inhibition curve with a large enough effect; inconclusive = small, poorly fitted or top-dose-only effect; inactive = flat fitted curve, though single readings scatter.
Write down the outcome that applies. Available outcomes: Yes for active, No for inactive

molecule: CN1CCC(=C2c3ccccc3C=Cc3ccccc32)CC1
class-label: Yes

q: Called result for "N[C@@H](Cc1c[nH]c2ccc(O)cc12)C(=O)O"
a: No

q: Called result for "NC(=O)OCC(COC(N)=O)c1ccccc1"
a: No

q: Called result for "CCOC(=O)C(C)(C)Oc1ccc(Cl)cc1"
a: No

q: Called result for "CN1C(C(=O)Nc2ccccn2)=C(O)c2ccccc2S1(=O)=O"
a: No

---

- procedure-summary: qHTS of pediatric cancer cell lines to identify multiple opportunities for drug repurposing: Primary screen for U-2 OS cells (AID 1347096); also: nearly all actives have a fitted effect of over 50% in size
- experimental-setup: U-2 OS viability, CellTiter-Glo luminescence, 48 h; series mostly up to 46 µM
Inconclusive results are not listed. The source made the active and inactive calls. The call rests on the fitted dose curve; in most records, active means well fitted cell-killing curve with a large enough effect; inconclusive means small, poorly fitted or top-dose-only effect; inactive means flat fitted curve, though single readings scatter.
Write down the outcome that applies. Available outcomes: true = active, false = inactive

compound: CN(CCOc1ccc(NS(C)(=O)=O)cc1)CCc1ccc(NS(C)(=O)=O)cc1
class-label: false
//
compound: Cn1c(=O)c2c(ncn2C)n(C)c1=O
class-label: false
//
compound: Clc1ccc2nsnc2c1NC1=NCCN1
class-label: false
//
compound: CS(=O)(=O)CCNCc1ccc(-c2ccc3ncnc(Nc4ccc(OCc5cccc(F)c5)c(Cl)c4)c3c2)o1
class-label: true
//
compound: CCC1(C)CC(=O)NC1=O (centres undefined)
class-label: false

q: Called result for CN1CCN2c3ccccc3Cc3ccccc3C2C1 (centres undefined)
a: false

q: Called result for CC1(CN2CCC(n3c(=O)[nH]c4ccccc43)CC2)OCc2ccccc2-n2cccc21 (centres undefined)
a: false

q: Called result for "O=C1N(c2ccccc2)c2ccccc2C1(Cc1ccncc1)Cc1ccncc1"
a: false

q: Called result for "Cn1ccc2cc3c(cc21)CCN3C(=O)Nc1cccnc1"
a: false

---

- System: 7G8
- procedure-summary: qHTS profiling for inhibitors of Plasmodium falciparum proliferation (AID 504749); also: nearly all actives have a fitted effect of over 60% in size; also: potency is read from the fitted curve at half-maximal effect
- experimental-setup: P. falciparum in erythrocytes, SYBR Green DNA, 72 h; series mostly up to 28.7 µM
Results filed as inconclusive are left out. Active and inactive are the calls of the source. The call rests on the fitted dose curve; in most records, active means well fitted inhibition curve with a large enough effect; inconclusive means small, poorly fitted or top-dose-only effect; inactive means flat fitted curve, though single readings scatter.
Each entry below lists one item and its recorded Potency value.

Before answering, review these 5 worked examples.
compound: CC(COc1ccccc1)N(CCCl)Cc1ccccc1 (configuration not stated)
Potency: 12.6 µM (active)
--
compound: CCOC(=O)Nc1ccc(NCc2ccc(F)cc2)nc1N
Potency: 10 µM (active)
--
compound: CC12CC3CC(C)(C1)CC(N)(C3)C2
Potency: 8.91 µM (active)
--
compound: CN(Cc1cnc2nc(N)nc(N)c2n1)c1ccc(C(=O)N[C@@H](CCC(=O)O)C(=O)O)cc1
Potency: 0.126 µM (active)
--
compound: CCCNCC(O)COc1ccccc1C(=O)CCc1ccccc1 (configuration not stated)
Potency: 0.251 µM (active)

Next compound, please.
q: For the compound COc1ccccc1N1CCN(CC(O)COc2cccc3ccccc23)CC1 (configuration not stated) , what Potency is on record?
a: 11.2 µM (active)

---

- measured-target: Ferritin light chain (Equus caballus) (UniProt P02791)
- procedure-summary: qHTS Validation Assay for Identification of Novel General Anesthetics (AID 2323); also: % is scaled to controls: 0 for no effect and ±100 for the full control effect
- experimental-setup: horse apoferritin, anesthetic-site fluorescent probe displacement; series mostly up to 76.9 µM
Inconclusive results are not listed. Active and inactive are the calls of the source. The call rests on the fitted dose curve; in most records, active means well fitted curve in the direction sought with a large enough effect; inconclusive means small, poorly fitted or top-dose-only effect, or another doubt; inactive means no such curve, though single readings can be large or run the other way.
experimental-endpoint: outcome

Before answering, review these 6 worked examples.
compound: COC(=O)Nc1nc2ccc(C(=O)c3cccs3)cc2[nH]1
outcome: inactive
--
compound: CN1C2CCC1CC(OC(=O)C(CO)c1ccccc1)C2 (configuration not stated)
outcome: inactive
--
compound: Cn1c(=O)c2c(ncn2C)n(C)c1=O
outcome: inactive
--
compound: NCCCCCC(=O)O
outcome: inactive
--
compound: COc1cc2nc(N3CCN(C(=O)c4ccco4)CC3)nc(N)c2cc1OC
outcome: inactive
--
compound: CC(CCc1ccc(O)cc1)NCCc1ccc(O)c(O)c1 (configuration not stated)
outcome: inactive

Next compound, please.
q: For the compound COc1cc2nc(N3CCN(C(=O)C4COc5ccccc5O4)CC3)nc(N)c2cc1OC (configuration not stated) , what outcome is on record?
a: inactive

---

- System: TAB165
- procedure-summary: qHTS profiling for inhibitors of Plasmodium falciparum proliferation (AID 504749); also: nearly all actives have a fitted effect of over 60% in size; also: potency is read from the fitted curve at half-maximal effect
- experimental-setup: P. falciparum in erythrocytes, SYBR Green DNA, 72 h; series mostly up to 28.7 µM
Results filed as inconclusive are left out. The source made the active and inactive calls. Calls follow the shape of the dose curve; as a rule, active = well fitted inhibition curve with a large enough effect; inconclusive = small, poorly fitted or top-dose-only effect; inactive = flat fitted curve, though single readings scatter.
experimental-endpoint: Potency

compound: Clc1ccc2nsnc2c1NC1=NCCN1
measured-target: TAB165
Potency: inactive
--
compound: CCOC(=O)c1ncn2c1CN(C)C(=O)c1cc(F)ccc1-2
measured-target: TAB165
Potency: inactive
--
compound: CC(C)NCC(O)c1ccc(O)c(O)c1 (stereo not drawn)
measured-target: TAB165
Potency: inactive
--
compound: CN1CCN2c3ccccc3Cc3ccccc3C2C1 (stereo not drawn)
measured-target: TAB165
Potency: inactive
--
compound: COc1cc2c(c(OC)c1OC)-c1ccc(OC)c(=O)cc1[C@@H](NC(C)=O)CC2
measured-target: TAB165
Potency: inactive
--
compound: CN(CCOc1ccc(NS(C)(=O)=O)cc1)CCc1ccc(NS(C)(=O)=O)cc1
measured-target: TAB165
Potency: inactive
--
compound: CCOC(=O)C(C)(C)Oc1ccc(Cl)cc1
measured-target: TAB165
Potency: inactive
--
compound: O=c1c(O)c(-c2ccc(O)c(O)c2)oc2cc(O)cc(O)c12
measured-target: TAB165
Potency: 7.08 µM (active)
--
compound: CC(CCc1ccc(O)cc1)NCCc1ccc(O)c(O)c1 (stereo not drawn)
measured-target: TAB165
Potency: inactive
--
compound: Cc1cnc(C(=O)NCCc2ccc(S(=O)(=O)NC(=O)NC3CCCCC3)cc2)cn1
measured-target: TAB165
Potency: inactive

q: For the compound "CN1CCC(=C2c3ccccc3C=Cc3ccccc32)CC1" , what Potency is on record?
a: inactive

q: For the compound COc1ccc(CCN(C)CCCC(C#N)(c2ccc(OC)c(OC)c2)C(C)C)cc1OC (stereo not drawn) , what Potency is on record?
a: inactive

q: For the compound "O=C1N(c2ccccc2)c2ccccc2C1(Cc1ccncc1)Cc1ccncc1" , what Potency is on record?
a: inactive

---

- procedure-summary: Drug repurposing screens with cells derived from glioblastoma tumor samples (AID 1345199); also: % is scaled to controls: 0 for no effect and ±100 for the full control effect; nearly all actives have a fitted effect of over 40% in size
- experimental-setup: GBM patient neurospheres viability, ATP luminescence, 48 h; at 46 µM (top of the series); tumour line A
Inconclusive results are not listed.
Would you mind sorting the entries by activity, negative = cell killing according to these classes? 0: < -30%; 1: ≥ -30% and < -20%; 2: ≥ -20%

compound: OCCN(CCO)c1nc(N2CCCCC2)c2nc(N(CCO)CCO)nc(N3CCCCC3)c2n1
class-label: 2

q: Which class holds "CC(C)(C)C(=O)Oc1ccc(S(=O)(=O)Nc2ccccc2C(=O)NCC(=O)O)cc1" ?
a: 2

q: Which class holds "CCC1(c2ccccc2)C(=O)NCNC1=O" ?
a: 2

q: Which class holds CC1COc2c(N3CCN(C)CC3)c(F)cc3c(=O)c(C(=O)O)cn1c23 (stereo unspecified) ?
a: 1

q: Which class holds "CN(Cc1cnc2nc(N)nc(N)c2n1)c1ccc(C(=O)N[C@@H](CCC(=O)O)C(=O)O)cc1" ?
a: 2

q: Which class holds NC(CO)C(=O)NNCc1ccc(O)c(O)c1O (stereo unspecified) ?
a: 2

q: Which class holds "N[C@@H](Cc1c[nH]c2ccc(O)cc12)C(=O)O" ?
a: 0

---

- Tested on: HaCat
- procedure-summary: Cytotoxic Profiling of Annotated Libraries Using Quantitative High-Throughput Screening (AID 1296008); also: % is scaled to controls: 0 for no effect and ±100 for the full control effect; nearly all actives have a fitted effect of over 60% in size
- experimental-setup: Five cell lines viability, CellTiter-Glo ATP luminescence, 48-72 h; hits give low values
Records with an inconclusive call do not appear.
experimental-endpoint: max response (%)
Please give a number only; it is taken to be in %.

Before answering, review these 10 worked examples.
compound: COc1ccc(C2CNC(=O)C2)cc1OC1CCCC1 (configuration not stated)
uom: %
max response: -13.7

compound: CCc1cccc2c3c([nH]c12)C(CC)(CC(=O)O)OCC3 (configuration not stated)
uom: %
max response: 2.9

compound: CCN1CCCC1CNC(=O)c1cc(S(=O)(=O)CC)c(N)cc1OC (configuration not stated)
uom: %
max response: -3.32

compound: Cc1ccccc1N1C(=O)c2cc(S(N)(=O)=O)c(Cl)cc2NC1C (configuration not stated)
uom: %
max response: 0.851

compound: O=C1N(c2ccccc2)c2ccccc2C1(Cc1ccncc1)Cc1ccncc1
uom: %
max response: 2.97

compound: O=c1c(-c2ccc(O)cc2)coc2cc(O)cc(O)c12
uom: %
max response: 0.82

compound: Cc1cnc(C(=O)NCCc2ccc(S(=O)(=O)NC(=O)NC3CCCCC3)cc2)cn1
uom: %
max response: 0.0058

compound: CC1(C)O[C@H]2CC(=O)OC[C@]23[C@H]2CC[C@@]4(C)[C@H](c5ccoc5)OC(=O)[C@H]5O[C@]54[C@]2(C)C(=O)C[C@@H]13
uom: %
max response: -5.81

compound: COc1ccc2c(c1)c(CC(=O)O)c(C)n2C(=O)c1ccc(Cl)cc1
uom: %
max response: -5.33

compound: CN1CCN(CCCN2c3ccccc3Sc3ccc(Cl)cc32)CC1
uom: %
max response: 0.937

q: Please tell me: max response of "CN(CCOc1ccc(NS(C)(=O)=O)cc1)CCc1ccc(NS(C)(=O)=O)cc1" , system HaCat?
a: 2.47

q: Please tell me: max response of COc1cc2nc(N3CCN(C(=O)C4COc5ccccc5O4)CC3)nc(N)c2cc1OC (configuration not stated) , system HaCat?
a: -6.13

q: Please tell me: max response of COc1ccccc1OCC(O)CN1CCN(CC(=O)Nc2c(C)cccc2C)CC1 (configuration not stated) , system HaCat?
a: -0.555
